Below is a list of entries, each paired with its recorded Kd value.
study.target: HLA-A*02:17
assay.name: IEDB peptide-MHC binding, purified MHC/competitive/radioactivity; filed as Kd, often an IC50 or EC50 that approximates it; bounds were set here for any values at or beyond the usual limits of such assays
condition.set: source organism: Dengue virus 4 Philippines/H241/1956
Report as a plain number; the unit µM is understood.

Note down Kd recorded for `KQITNELNYV`
0.642

Note down Kd recorded for `WLVHKQWFL`
0.015

Note down Kd recorded for `ALLAGFMAYM`
0.034

---

study.target: HLA-A*02:12
assay.name: IEDB peptide-MHC binding, purified MHC/direct/fluorescence; filed as Kd, often an IC50 or EC50 that approximates it; bounds were set here for any values at or beyond the usual limits of such assays
condition.set: source organism: Dengue virus 2 Thailand/16681/84
quantity.name: Kd (µM)
Report as a plain number; the unit µM is understood.

Note down Kd recorded for `SMVNGVVRL`
0.013

---

study.target: HLA-A*11:01
assay.name: IEDB peptide-MHC binding, purified MHC/direct/fluorescence; filed as Kd, often an IC50 or EC50 that approximates it; bounds were set here for any values at or beyond the usual limits of such assays
condition.set: source organism: Vibrio vulnificus
quantity.name: Kd (nM)
Report as a plain number; the unit nM is understood.

Note down Kd recorded for `ASILSRMAY`
7.4

---

study.target: HLA-B*07:02
assay.name: IEDB peptide-MHC binding, purified MHC/direct/fluorescence; filed as Kd, often an IC50 or EC50 that approximates it; bounds were set here for any values at or beyond the usual limits of such assays
condition.set: source organism: Seoul virus 80-39
quantity.name: Kd (nM)
Report as a plain number; the unit nM is understood.

Report Kd from HLA-B*07:02 testing of `LVRDITESL`
39.2

---

study.target: HLA-B*46:01
assay.name: IEDB peptide-MHC binding, purified MHC/direct/fluorescence; filed as Kd, often an IC50 or EC50 that approximates it; bounds were set here for any values at or beyond the usual limits of such assays
condition.set: source organism: Yersinia enterocolitica subsp. enterocolitica 8081
pKd: −log10 of the molar value.
quantity.name: pKd

Note down pKd recorded for `LAYLAGWII`
≤ 4.70

---

study.target: HLA-A*02:03
assay.name: IEDB peptide-MHC binding, purified MHC/competitive/radioactivity; filed as Kd, often an IC50 or EC50 that approximates it; bounds were set here for any values at or beyond the usual limits of such assays
condition.set: source organism: Mammarenavirus guanaritoense
pKd: −log10 of the molar value.
quantity.name: pKd

Report pKd from HLA-A*02:03 testing of `YVIGLLPQS`
≤ 4.11

---

study.target: HLA-A*02:01
assay.name: IEDB peptide-MHC binding, purified MHC/competitive/radioactivity; filed as Kd, often an IC50 or EC50 that approximates it; bounds were set here for any values at or beyond the usual limits of such assays
condition.set: source organism: Homo sapiens
Below is a list of entries, each paired with its recorded Kd value.

| seq.string | quantity.name | data.value |
| --- | --- | --- |
| DLEDLKDQI | Kd | ≥ 24.3 µM |
| FAFVTDNTY | Kd | ≥ 78.1 µM |

Report Kd from HLA-A*02:01 testing of `VLENFTILLV`
0.527 µM

---

study.target: HLA-B*46:01
assay.name: IEDB peptide-MHC binding, purified MHC/direct/fluorescence; filed as Kd, often an IC50 or EC50 that approximates it; bounds were set here for any values at or beyond the usual limits of such assays
condition.set: source organism: Yellow fever virus
quantity.name: Kd

Note down Kd recorded for `LVLAVGPAY`
≥ 20 µM

---

study.target: HLA-B*51:01
assay.name: IEDB peptide-MHC binding, purified MHC/competitive/fluorescence; filed as Kd, often an IC50 or EC50 that approximates it; bounds were set here for any values at or beyond the usual limits of such assays
condition.set: source organism: Homo sapiens
quantity.name: Kd

Note down Kd recorded for `VTDTALAYF`
≥ 20 µM

---

study.target: HLA-A*26:01
assay.name: IEDB peptide-MHC binding, purified MHC/direct/fluorescence; filed as Kd, often an IC50 or EC50 that approximates it; bounds were set here for any values at or beyond the usual limits of such assays
condition.set: source organism: Campylobacter jejuni RM1221
pKd: −log10 of the molar value.
quantity.name: pKd

Note down pKd recorded for `ALIVAIWDK`
≤ 4.70

---

study.target: HLA-A*02:01
assay.name: IEDB peptide-MHC binding, purified MHC/competitive/fluorescence; filed as Kd, often an IC50 or EC50 that approximates it; bounds were set here for any values at or beyond the usual limits of such assays
condition.set: source organism: Orthohantavirus sinnombreense
pKd: −log10 of the molar value.
quantity.name: pKd

Note down pKd recorded for `LVTARQKLK`
≤ 4.70

---

study.target: HLA-B*27:05
assay.name: IEDB peptide-MHC binding, purified MHC/direct/fluorescence; filed as Kd, often an IC50 or EC50 that approximates it; bounds were set here for any values at or beyond the usual limits of such assays
condition.set: source organism: Influenza A virus (A/swine/Chiai/77-10/2001(H3N1))
pKd: −log10 of the molar value.
quantity.name: pKd

Note down pKd recorded for `VSFDQNLDY`
≤ 4.70

---

study.target: HLA-B*18:01
assay.name: IEDB peptide-MHC binding, purified MHC/direct/fluorescence; filed as Kd, often an IC50 or EC50 that approximates it; bounds were set here for any values at or beyond the usual limits of such assays
condition.set: source organism: Mammarenavirus lassaense
quantity.name: Kd

Note down Kd recorded for `FVRSSPANF`
≥ 20 µM

---

study.target: HLA-A*03:01
assay.name: IEDB peptide-MHC binding, purified MHC/competitive/radioactivity; filed as Kd, often an IC50 or EC50 that approximates it; bounds were set here for any values at or beyond the usual limits of such assays
condition.set: source organism: Dengue virus 2 Jamaica/1409/1983
Below is a list of entries, each paired with its recorded pKd value.
Please report pKd as the negative decimal logarithm of the molar concentration, giving only the number.

| seq.string | data.value |
| --- | --- |
| VLKIVRNMEK | 7.08 |

Pending sequence:
Note down pKd recorded for `LINRFTMKHK`
7.90

---

study.target: HLA-B*39:01
assay.name: IEDB peptide-MHC binding, purified MHC/direct/fluorescence; filed as Kd, often an IC50 or EC50 that approximates it; bounds were set here for any values at or beyond the usual limits of such assays
condition.set: source organism: Influenza A virus(A/swine/Shandong/fZC/2003(H9N2))
quantity.name: Kd

Note down Kd recorded for `FQKDAKVLF`
≥ 20 µM

---

study.target: HLA-B*57:01
assay.name: IEDB peptide-MHC binding, purified MHC/competitive/fluorescence; filed as Kd, often an IC50 or EC50 that approximates it; bounds were set here for any values at or beyond the usual limits of such assays
condition.set: source organism: Mycobacterium tuberculosis C
quantity.name: Kd (nM)
Report as a plain number; the unit nM is understood.

Report Kd from HLA-B*57:01 testing of `LTFLDCLYY`
187

---

study.target: HLA-A*02:16
assay.name: IEDB peptide-MHC binding, purified MHC/direct/fluorescence; filed as Kd, often an IC50 or EC50 that approximates it; bounds were set here for any values at or beyond the usual limits of such assays
condition.set: source organism: Limestone Canyon virus
pKd: −log10 of the molar value.
quantity.name: pKd

Note down pKd recorded for `LVTARQKLK`
≤ 4.70

---

study.target: HLA-B*40:13
assay.name: IEDB peptide-MHC binding, purified MHC/competitive/fluorescence; filed as Kd, often an IC50 or EC50 that approximates it; bounds were set here for any values at or beyond the usual limits of such assays
condition.set: source organism: Yersinia pestis Nepal516
quantity.name: Kd

Report Kd from HLA-B*40:13 testing of `YMYDFILRF`
159 nM

---

study.target: HLA-B*18:01
assay.name: IEDB peptide-MHC binding, purified MHC/competitive/fluorescence; filed as Kd, often an IC50 or EC50 that approximates it; bounds were set here for any values at or beyond the usual limits of such assays
condition.set: source organism: Vibrio parahaemolyticus AQ3810
quantity.name: Kd

Note down Kd recorded for `HFIYHKREK`
≥ 20 µM

---

study.target: HLA-A*01:01
assay.name: IEDB peptide-MHC binding, purified MHC/competitive/fluorescence; filed as Kd, often an IC50 or EC50 that approximates it; bounds were set here for any values at or beyond the usual limits of such assays
condition.set: source organism: Yersinia pestis Nepal516
quantity.name: pKd
Please report pKd as the negative decimal logarithm of the molar concentration, giving only the number.

Note down pKd recorded for `MVASQLARY`
5.91

---

study.target: HLA-B*18:01
assay.name: IEDB peptide-MHC binding, purified MHC/competitive/fluorescence; bounds were set here for any values at or beyond the usual limits of such assays
condition.set: source organism: Mus musculus
pIC50: −log10 of the molar value.
quantity.name: pIC50

Note down pIC50 recorded for `VALFSSCPVAY`
≤ 4.70

Values from the Immune Epitope Database (IEDB)
